Biological target: DRB1*0802 (Homo sapiens, UniProt P01903+P01911, A100R/A103L/A169T/F76Y/H45Y/I96F/K41T/L162R/M171V/P40S/Q125H/Q178H/Q39Y/Q99D/R218S/R42G/S66Y/V115G/W38E)
Test: biochemical
Assay type: binding
pIC50: −log10 of the molar value.

COMPOUND: CC[C@H](C)[C@H](NC(=O)[C@H](CC(C)C)NC(=O)[C@H](C)NC(=O)[C@H](CO)NC(=O)[C@H](CCCNC(=N)N)NC(=O)[C@H](C)NC(=O)[C@H](CC(C)C)NC(=O)[C@H](Cc1ccccc1)NC(=O)[C@@H](NC(=O)[C@@H](N)CC(C)C)[C@@H](C)CC)C(=O)N[C@@H](CC(C)C)C(=O)N[C@@H](CCCNC(=N)N)C(=O)NCC(=O)N[C@@H](CO)C(=O)N[C@H](C(=O)O)C(C)C
SIGN_QUALIFIER: =
pIC50: 7.96
//
COMPOUND: CC[C@H](C)[C@H](NC(=O)[C@@H](N)Cc1ccc(O)cc1)C(=O)N[C@@H](CCC(N)=O)C(=O)N[C@@H](CCSC)C(=O)N[C@@H](CS)C(=O)N[C@H](C(=O)N[C@@H](CCC(=O)O)C(=O)N[C@@H](CC(C)C)C(=O)N[C@@H](CCCCN)C(=O)N[C@@H](CC(C)C)C(=O)N[C@@H](CO)C(=O)N[C@@H](CC(=O)O)C(=O)N[C@@H](Cc1ccc(O)cc1)C(=O)N[C@@H](CCC(=O)O)C(=O)NCC(=O)O)[C@@H](C)O
SIGN_QUALIFIER: <
pIC50: 5.00
//
COMPOUND: CC[C@H](C)[C@H](NC(=O)[C@H](CC(C)C)NC(=O)[C@@H](NC(=O)[C@@H](N)CC(N)=O)C(C)C)C(=O)NCC(=O)N[C@@H](CCC(N)=O)C(=O)NCC(=O)N[C@@H](CC(=O)O)C(=O)N[C@H](C(=O)N[C@H](C(=O)N[C@@H](CC(C)C)C(=O)N[C@H](C(=O)N[C@@H](CCSC)C(=O)N[C@@H](CCCCN)C(=O)N[C@@H](CCCNC(=N)N)C(=O)O)C(C)C)C(C)C)C(C)C
SIGN_QUALIFIER: =
pIC50: 5.96

Data provenance: patent US9511134B2
